# subject.of.test: human mGlu4 receptor (Homo sapiens)
# Construct: expressed in transfected cells; host or cells: HEK-293 (monoclonal, stably transfected)
# Sequence (Q14833 33-912): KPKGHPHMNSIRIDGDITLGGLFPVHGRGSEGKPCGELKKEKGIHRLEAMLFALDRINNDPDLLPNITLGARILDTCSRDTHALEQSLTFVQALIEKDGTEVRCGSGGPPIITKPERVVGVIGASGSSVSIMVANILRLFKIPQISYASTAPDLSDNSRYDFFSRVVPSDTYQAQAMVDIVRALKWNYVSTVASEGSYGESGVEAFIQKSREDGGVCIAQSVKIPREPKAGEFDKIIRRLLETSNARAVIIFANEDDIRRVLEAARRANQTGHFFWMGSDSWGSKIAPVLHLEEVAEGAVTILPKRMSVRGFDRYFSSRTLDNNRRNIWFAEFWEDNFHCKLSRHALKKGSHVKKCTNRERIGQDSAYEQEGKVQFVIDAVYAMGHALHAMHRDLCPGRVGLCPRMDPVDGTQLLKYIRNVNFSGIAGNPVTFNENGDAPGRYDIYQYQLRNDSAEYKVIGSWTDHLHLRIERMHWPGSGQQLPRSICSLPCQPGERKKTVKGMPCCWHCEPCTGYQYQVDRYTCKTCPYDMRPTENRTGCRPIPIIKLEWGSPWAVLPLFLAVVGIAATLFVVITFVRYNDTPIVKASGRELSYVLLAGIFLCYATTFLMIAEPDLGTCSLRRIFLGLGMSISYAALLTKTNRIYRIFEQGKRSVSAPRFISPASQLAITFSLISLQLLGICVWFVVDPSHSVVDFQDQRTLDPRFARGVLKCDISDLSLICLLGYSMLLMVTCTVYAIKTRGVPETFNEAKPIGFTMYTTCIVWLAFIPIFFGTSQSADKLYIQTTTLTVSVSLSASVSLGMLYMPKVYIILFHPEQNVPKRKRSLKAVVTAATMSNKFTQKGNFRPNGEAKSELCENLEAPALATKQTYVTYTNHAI
# protocol.description: Ca2+ mobilization in vitro assay on recombinant human mGlu4 expressed in HEK293 cells (mGlu4 PAM)
# Type: cell-based
# test.conditions: HEK-293 cells, Ca2+ mobilization, L-AP4 added at EC20
# Experimental: Determination of EC50 Values Using a Ca2+ mobilization in vitro Assay on Recombinant Human mGlu4 Expressed in HEK293 cells: […] Responses were measured as peak increase in fluorescence minus basal (i.e. fluorescence without addition of L-AP4), normalized to the maximal stimulatory effect obtained with saturating concentrations of L-AP4. […]
quantity: EC50 (nM)
Only the number, expressed in nM, is required.

CN1C(=O)N(c2c(F)cc(C#Cc3cccnc3)cc2Cl)C(=O)CC1(C)c1ccccc1 (racemic)	135

Lookup result for CN1C(=O)N(c2c(F)cc(C#Cc3ccccc3)cc2F)C(=O)C[C@@]1(C)c1ccc(=O)n(C)c1 ; measured EC50: 43

Lookup result for CN1C(=O)N(c2c(F)cc(C#Cc3cccnc3)cc2Cl)C(=O)CC1(C)C ; measured EC50: 429

Lookup result for CN1C(=O)N(c2ccc(C#Cc3ccccc3)cc2Cl)C(=O)CC1(C)c1cccnc1 (racemic) ; measured EC50: 132

Lookup result for CN1C(=O)N(c2c(F)cc(C#Cc3ccccc3)cc2F)C(=O)CC12CCCC2 ; measured EC50: 72
